# Test system: HIV-1
# EXPERIMENT SUMMARY: Inhibition of HIV-1 production (p24 antigen) in infected peripheral blood mononuclear cells (PBMCs)
# Assay type: cell-based, HIV-1 (AdaM) in PBMCs of healthy donors
# CONDITION CONTEXT: Human immunodeficiency virus 1, PBMC; p24 production in HIV infected PBMCs; dose response curves
I'd be grateful if you could share measured pIC50 for these entries.
In textbook form, pIC50 equals minus log to base ten of the concentration in mol/L.

q: What measured pIC50 is associated with Cc1cc2ccccc2nc1Nc1ccc(OC(F)(F)F)cc1 on HIV-1?
a: 9.00

q: What measured pIC50 is associated with Cc1ccnc(Nc2ccc3cccc(Cl)c3n2)c1 on HIV-1?
a: 10.00

q: What measured pIC50 is associated with COc1ccc(Nc2ccc3cccc(Cl)c3n2)cc1 on HIV-1?
a: 10.30

q: What measured pIC50 is associated with O=[N+]([O-])c1cccnc1Nc1cnc2ccccc2c1 on HIV-1?
a: 9.30

q: What measured pIC50 is associated with FC(F)(F)Oc1ccc(Nc2ccc3cccc(Cl)c3n2)cc1 on HIV-1?
a: 10.00

q: What measured pIC50 is associated with Clc1cccc2ccc(Nc3cnccn3)nc12 on HIV-1?
a: 10.00

q: What measured pIC50 is associated with Fc1ccc(Nc2ccc3cccc(Cl)c3n2)nc1 on HIV-1?
a: 10.00

###

I'd be grateful if you could share measured fold induction at 5 µM for these entries.
# Tested on: LMNA aberrant splicing (MutLMNA-luc cell line)
# EXPERIMENT SUMMARY: Luciferase assay for repression of LMNA aberrant splicing in stable 293 MutLMNA-luc cell line (293FLP LMNA LUC cells #8)
# Format: cell-based
# CONDITION CONTEXT: 48 hours, compared to control untreated MutLMNA-luc cell line, read-out: Increase of luciferase activity
# From the text: Advantage has been taken of the luciferase system. The luciferase assay is an extremely sensitive and rapid assay. Linear results are seen over at least eight orders of magnitude of enzyme concentration. Moreover, the luciferase assay is well suited for high-throughput applications. […]
Keep the answer to the number alone.

q: Quick check: fold induction at 5 µM of Cc1cccc(Nc2ccc3ncccc3c2)n1 ?
a: 4.56

q: Quick check: fold induction at 5 µM of Cc1cc(OC(F)(F)F)ccc1Nc1cnc2ccccc2n1 ?
a: 2.59

q: Quick check: fold induction at 5 µM of Cc1cccc(Nc2cc(C)c3ccccc3n2)n1 ?
a: 3.08

q: Quick check: fold induction at 5 µM of Cc1ccnc(Nc2ccc3ccccc3n2)c1 ?
a: 4.54

q: Quick check: fold induction at 5 µM of FC(F)(F)Oc1ccc(Nc2ccc3ccccc3n2)cc1 ?
a: 3.35

q: Quick check: fold induction at 5 µM of COc1cccnc1Nc1ccc2ncccc2c1 ?
a: 4.57

q: Quick check: fold induction at 5 µM of c1ccc(Nc2cnc3ccccc3c2)nc1 ?
a: 2.47

q: Quick check: fold induction at 5 µM of Cc1cccc(Nc2cnc3ccccc3n2)n1 ?
a: 8.22

q: Quick check: fold induction at 5 µM of COc1cccnc1Nc1cnc2ccccc2c1 ?
a: 2.01

q: Quick check: fold induction at 5 µM of COC(=O)c1ccc(Nc2ccc3ccccc3n2)nc1 [Compound 59, methyl 6-(quinolin-2-ylamino)nicotinate] ?
a: 2.49

q: Quick check: fold induction at 5 µM of Cc1ccc(Nc2ccc3ncccc3c2)nc1 ?
a: 2.2

q: Quick check: fold induction at 5 µM of O=[N+]([O-])c1ccc(Nc2ccc3ccccc3n2)nc1 ?
a: 4.29

q: Quick check: fold induction at 5 µM of Cc1cccnc1Nc1ccc2cccc(Cl)c2n1 ?
a: 2.74

q: Quick check: fold induction at 5 µM of COc1ccnc2cc(Nc3cc(C)ccn3)ccc12 ?
a: 4.18

q: Quick check: fold induction at 5 µM of Cc1ccc(Nc2ccc3ccccc3n2)nc1 ?
a: 2.96

q: Quick check: fold induction at 5 µM of O=C(O)c1ccnc(Nc2ccc3ccccc3n2)c1 ?
a: 3.77

q: Quick check: fold induction at 5 µM of Cc1ccc(Nc2cnc3ccccc3c2)nc1 ?
a: 3.46

q: Quick check: fold induction at 5 µM of O=[N+]([O-])c1cccnc1Nc1cnc2ccccc2c1 ?
a: 2.77
